Test system: COLO 205
Experiment: Antiproliferative activity against Rb-positive human COLO205 cells assessed as incorporation of [14C]thymidine into DNA after 72 hrs by beta-plate counting analysis
readout_kind: IC50 (µM)

test_smiles: C[C@H]1CC[C@H](n2c3cnccc3c3cnc(Nc4ccc(N5CCN(C(=O)CO)CC5)nn4)nc32)CC1
val: 0.031

test_smiles: COc1nc(Nc2ncc3c4ccncc4n([C@H]4CC[C@H](C)CC4)c3n2)ccc1N1CCC2(CCC(=O)N2)CC1
val: 0.044

test_smiles: COc1nc(Nc2ncc3c4ccncc4n([C@H]4CC[C@H](C)CC4)c3n2)ccc1N1CCC(N(C)C)CC1
val: 0.054

test_smiles: C[C@H]1CC[C@H](n2c3cnccc3c3cnc(Nc4ccc(N5CCC6(CCC(=O)N6)CC5)cn4)nc32)CC1
val: 0.031

I: O=c1[nH]ccc2c3cnc(Nc4ccc(N5CCNCC5)cn4)nc3n(C3CCCC3)c12
II: C[C@H]1CC[C@H](n2c3cnccc3c3cnc(Nc4ccc5c(n4)CCN(C(=O)CO)C5)nc32)CC1
III: C[C@@H](CO)n1c2cnccc2c2cnc(Nc3ccc(N4CCNCC4)cn3)nc21
IV: c1cc2c3cnc(Nc4ccc(N5CCNCC5)cn4)nc3n(C3CCCCC3)c2cn1
**Query** # desc sort on IC50 across 4 molecules Write the labels out in the order the request specifies.
**Result** III, I, II, IV

----------
Assay: AUC in rat at 2 mg/kg, po
Type: ADME, organism-based
Set-up: dose 2 mg/kg, route oral
Conditions: plasma
readout_kind: AUC (µM·h)

P: CN(C)C1CCN(c2ccc(Nc3ncc4c5ccncc5n([C@H]5CC[C@H](C)CC5)c4n3)nn2)CC1
Q: C[C@@H](O)CN(C)C1CCN(c2ccc(Nc3ncc4c5ccncc5n([C@H]5CC[C@H](C)CC5)c4n3)nn2)CC1
**Query** I'm curious, which of these has a smaller AUC number: P or Q ? Give the label of your selection.
**Result** P

----------
Recorded below: IC50, system UniProtKB P08684.
Sequence (P08684 whole entry): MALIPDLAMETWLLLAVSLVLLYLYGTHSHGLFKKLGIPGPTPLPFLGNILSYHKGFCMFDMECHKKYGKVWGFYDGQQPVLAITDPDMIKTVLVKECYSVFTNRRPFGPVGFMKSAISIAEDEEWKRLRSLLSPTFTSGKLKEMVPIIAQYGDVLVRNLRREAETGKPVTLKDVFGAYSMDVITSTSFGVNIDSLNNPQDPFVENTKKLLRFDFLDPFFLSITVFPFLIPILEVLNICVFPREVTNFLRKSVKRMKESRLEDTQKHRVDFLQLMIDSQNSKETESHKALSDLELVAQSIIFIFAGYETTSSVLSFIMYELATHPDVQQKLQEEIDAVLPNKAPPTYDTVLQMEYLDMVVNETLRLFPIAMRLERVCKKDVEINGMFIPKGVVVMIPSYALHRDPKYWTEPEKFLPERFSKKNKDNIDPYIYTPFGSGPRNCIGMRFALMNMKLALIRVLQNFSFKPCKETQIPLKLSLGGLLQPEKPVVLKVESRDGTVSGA
readout_kind: IC50 (µM)

1: c1cc2c3cnc(Nc4ccc(N5CCNCC5)cn4)nc3n(C3CCCC3)c2cn1
2: CC1(C)CCC(n2c3cnccc3c3cnc(Nc4ccc(N5CCNCC5)cn4)nc32)CC1
**Query** I'm curious, which of these has a smaller IC50 number: 1 or 2 ? Give the label of your selection.
**Result** 1

----------
Assay: Total Cmax in rat at 2 mg/kg, po
Type: ADME, organism-based
Design: dose 2 mg/kg, route oral
Details: in vivo
readout_kind: Cmax (nM)

P: C[C@@H](O)CN(C)C1CCN(c2ccc(Nc3ncc4c5ccncc5n([C@H]5CC[C@H](C)CC5)c4n3)nn2)CC1
Q: CN(C)C1CCN(c2ccc(Nc3ncc4c5ccncc5n([C@H]5CC[C@H](C)CC5)c4n3)nn2)CC1
**Query** I'm curious, which of these has a smaller Cmax number: P or Q ? Give the label of your selection.
**Result** Q

----------
Assay: AUC in po dosed CrTac:NCR-Foxn1nu (NCR) nude mouse xenografted with human MOLM13 cells administered qd for 8 days
Assay type: ADME, organism-based, MOLM-13
Conditions: in vivo
readout_kind: AUC at 192 h (µM·h)
Supply the numeric figure in µM·h, leaving out any unit text.

**Query** Looking for the measured AUC at 192 h of C[C@H]1CC[C@H](n2c3cnccc3c3cnc(Nc4ccc5c(n4)CCN(C(=O)CO)C5)nc32)CC1 , can you help?
**Result** 28

----------
Test: Clearance in iv dosed rat
Type: ADME, organism-based
Conditions: in vivo
readout_kind: clearance (mL/min/kg)

Take a look at these entries with their results.
test_smiles: C[C@H]1CC[C@H](n2c3cnccc3c3cnc(Nc4ccc(N5CCC6(CC5)CCS(=O)(=O)C6)nn4)nc32)CC1
value_units: mL/min/kg
val: 9
--
test_smiles: c1cc2c3cnc(Nc4ccc(N5CCNCC5)cn4)nc3n(C3CCCC3)c2cn1
value_units: mL/min/kg
val: 16.3
--
test_smiles: COc1nc(Nc2ncc3c4ccncc4n([C@H]4CC[C@H](C)CC4)c3n2)ccc1N1CCC(N(C)C)CC1
value_units: mL/min/kg
val: 9.17
--
test_smiles: Clc1nccc2c3cnc(Nc4ccc(N5CCNCC5)cn4)nc3n(C3CCCC3)c12
value_units: mL/min/kg
val: 28.3

A: C[C@@H](O)CN(C)C1CCN(c2ccc(Nc3ncc4c5ccncc5n([C@H]5CC[C@H](C)CC5)c4n3)nn2)CC1
B: CN(C)C1CCN(c2ccc(Nc3ncc4c5ccncc5n([C@H]5CC[C@H](C)CC5)c4n3)nc2F)CC1
C: c1cc2c3cnc(Nc4ccc(N5CCNCC5)cn4)nc3n(C3CCCC3)c2nn1
D: C[C@H]1CC[C@H](n2c3cnccc3c3cnc(Nc4ccc(N5CCNCC5)nn4)nc32)CC1
E: CS(=O)(=O)CC1CCN(c2ccc(Nc3ncc4c5ccncc5n([C@H]5CC[C@H](C)CC5)c4n3)nn2)CC1
**Query** Your job: order these 5 records by clearance, ascending. Write the labels out in the order the request specifies.
**Result** E, D, A, B, C
(E: 3.33 mL/min/kg, D: 5.83 mL/min/kg, A: 10 mL/min/kg, B: 20 mL/min/kg, C: 93.3 mL/min/kg)
